# System: A498
# EXPERIMENTAL PROTOCOL: NCI tumour cell line growth inhibition, 48 h
Activity calls are given as the source filed them. Rule as the data show it: active = GI50 up to about 1.1 µM and inactive = higher.
MEASUREMENT LABEL: GI50

Examples with their reported GI50 follow.
1) CC(C)N(C(=O)C12C3C4C1C1C2C3C41C#N)C(C)C (centres undefined) : > 100 µM (inactive)
2) O=C(O)CCC1CCc2cccc3occ1c23 (centres undefined) : > 100 µM (inactive)
3) COc1ccc(-c2c3c(n(C4OC(COC(C)=O)C(OC(C)=O)C(OC(C)=O)C4OC(C)=O)c(=S)c2C#N)CCCC3)cc1 (centres undefined) : 15.2 µM (inactive)

Attention now shifts to the item below.
Query: Entry "CC1(C)CC(=O)c2c(nc3ccc4ccccc4c3c2-c2ccc(NC(=O)CCCCC(=O)Nc3ccc(-c4c5c(nc6ccc7ccccc7c46)CC(C)(C)CC5=O)cc3)cc2)C1" , system A498: what GI50 was measured?
Result: > 100 µM (inactive)

---

# System: RPMI-8226
# EXPERIMENTAL PROTOCOL: NCI tumour cell line growth inhibition, 48 h
Active and inactive are the calls of the source. Cut-off read from the data, not from the text of the source: active = GI50 up to about 1.1 µM and inactive = higher.
Entries and their GI50 values follow.

1) COc1ccc(NC(=S)C#N)cc1 : 38.7 µM (inactive)
2) CC(=O)OCc1cc(CCC(=O)NCCNc2c3ccccc3nc3ccccc23)cc(COC(C)=O)c1O[Si](C)(C)C(C)(C)C : 2.57 µM (inactive)
3) CCOC(=O)Nn1c(C)cc(C(=O)OC)c1C : > 100 µM (inactive)

Query: Entry O=C(CC(C(=O)c1cccs1)c1cccs1)c1ccsc1 (configuration not stated) , system RPMI-8226: what GI50 was measured?
Result: 36.1 µM (inactive)

Query: Entry "CN(C)Cc1cc(C(=O)/C=C/c2cccc(Cl)c2)cc(CN(C)C)c1O" , system RPMI-8226: what GI50 was measured?
Result: 2.69 µM (inactive)

Query: Entry NC(C(=O)O)C(O)c1c[nH]cn1 (configuration not stated) , system RPMI-8226: what GI50 was measured?
Result: > 100 µM (inactive)

Query: Entry "Nn1c(Cc2ccccc2)n[nH]c1=O" , system RPMI-8226: what GI50 was measured?
Result: > 100 µM (inactive)

Query: Entry "COC(=O)c1ccc(/C=C(\c2ccc([N+](=O)[O-])o2)S(=O)(=O)c2ccc(NC(C)=O)cc2)o1" , system RPMI-8226: what GI50 was measured?
Result: 1.22 µM (inactive)

Query: Entry COc1cccc(C2SCC(=O)N2c2ccc(-n3c(-c4ccccc4)nc4ccccc4c3=O)cc2)c1OC (configuration not stated) , system RPMI-8226: what GI50 was measured?
Result: > 100 µM (inactive)

Query: Entry "COP(=O)(OC)/C(=C/c1c[nH]c2ccccc12)C(=O)O" , system RPMI-8226: what GI50 was measured?
Result: > 100 µM (inactive)

Query: Entry "COCCOc1nc(-c2ccccc2)nc2ccccc12" , system RPMI-8226: what GI50 was measured?
Result: 15.7 µM (inactive)

---

# System: SF-295
# EXPERIMENTAL PROTOCOL: NCI tumour cell line growth inhibition, 48 h
The source made the active and inactive calls. Rule as the data show it: active = GI50 up to about 1.1 µM and inactive = higher.
Classes to choose from: active, inactive

Solved cases below.
1. CCOC(=O)/C1=C(\C)N(c2ccc(C)cc2)C(=O)c2ccccc2C(=O)c2c(OC(C)=O)ccc(OC(C)=O)c21 : inactive
2. N#CCc1nnc(N)o1 : inactive
3. CN(C)CCN(C)c1ccc2c(=O)n(CCN(C)C)c(=O)n3c4ccccc4c(=O)c1c23 : active
4. COC[C@H](C)/N=C/N1CCc2ccccc2C1(Cc1ccccc1)Cc1ccccc1 : inactive
5. COc1nc(NC2OCC(OC(C)=O)C(OC(C)=O)C2OC(C)=O)c(/N=C\C=N\c2c(NC3OCC(OC(C)=O)C(OC(C)=O)C3OC(C)=O)nc(OC)n(C)c2=O)c(=O)n1C (stereo not drawn) : inactive

Query: // param item: "Brc1ccc(-c2ccc(-c3ccc(Br)s3)s2)s1" ; yields the recorded call
Result: inactive

Query: // param item: N#Cc1ccnc(C(=O)N2CCCC2C(=O)O)c1 (stereo not drawn) ; yields the recorded call
Result: inactive

Query: // param item: "S=C(S)NCCN1CCNCC1" ; yields the recorded call
Result: inactive
